assayText: Solubility of purified DIT peptides at concentrations needed for radiocontrast
conditionParameters: purified peptide (≥ 95% by HPLC), 10% DMSO/water, at 20 mg iodine/ml as well as 2 mg iodine/ml (lowest concentration for contrast)
Description: An integrated design, placing DIT into the core of WYRGRL (3) was followed by the addition of a further DIT at the N-terminus (4). […] To improve solubility, both arginine residues in 3 and 4 were replaced with lysine to give 5 and 6, respectively.
Non-standard residues stand in square brackets, D forms with d. Residues, ends and D or L forms follow the SMILES beside them. Tyr(3,5-I2) = N[C@@H](Cc1cc(I)c(O)c(I)c1)C(=O)O; AEEA = NCCOCCOCC(=O)O

compound: CC(C)C[C@H](NC(=O)[C@H](CCCCN)NC(=O)CNC(=O)[C@H](CCCCN)NC(=O)[C@H](Cc1ccc(O)cc1)NC(=O)[C@H](Cc1c[nH]c2ccccc12)NC(=O)COCCOCCNC(=O)[C@H](Cc1cc(I)c(O)c(I)c1)NC(=O)[C@@H](N)Cc1cc(I)c(O)c(I)c1)C(=O)O [compound 12] (H-[Tyr(3,5-I2)][Tyr(3,5-I2)][AEEA]WYKGKL-OH)
Solubility of pure peptide: insoluble
//
compound: CC(C)C[C@H](NC(=O)[C@H](CCCNC(=N)N)NC(=O)CNC(=O)[C@H](CCCNC(=N)N)NC(=O)[C@H](Cc1cc(I)c(O)c(I)c1)NC(=O)[C@@H](N)Cc1c[nH]c2ccccc12)C(=O)O [compound 3] (H-W[Tyr(3,5-I2)]RGRL-OH)
Solubility of pure peptide: poor solubility
//
compound: CC(C)C[C@H](NC(=O)[C@H](CCCCN)NC(=O)CNC(=O)[C@H](CCCCN)NC(=O)[C@H](Cc1cc(I)c(O)c(I)c1)NC(=O)[C@@H](N)Cc1c[nH]c2ccccc12)C(=O)NCCOCCOCC(=O)N[C@@H](Cc1cc(I)c(O)c(I)c1)C(=O)NCC(=O)O [compound 14] (H-W[Tyr(3,5-I2)]KGKL[AEEA][Tyr(3,5-I2)]G-OH)
Solubility of pure peptide: insoluble
//
compound: CC(C)C[C@H](NC(=O)[C@H](CCCNC(=N)N)NC(=O)CNC(=O)[C@H](CCCNC(=N)N)NC(=O)[C@H](Cc1cc(I)c(O)c(I)c1)NC(=O)[C@H](Cc1c[nH]c2ccccc12)NC(=O)[C@@H](N)Cc1cc(I)c(O)c(I)c1)C(=O)O [compound 4] (H-[Tyr(3,5-I2)]W[Tyr(3,5-I2)]RGRL-OH)
Solubility of pure peptide: poor solubility
